Target: Ferritin light chain (Equus caballus) (UniProt P02791)
Sequence (P02791 2-175 limits assumed): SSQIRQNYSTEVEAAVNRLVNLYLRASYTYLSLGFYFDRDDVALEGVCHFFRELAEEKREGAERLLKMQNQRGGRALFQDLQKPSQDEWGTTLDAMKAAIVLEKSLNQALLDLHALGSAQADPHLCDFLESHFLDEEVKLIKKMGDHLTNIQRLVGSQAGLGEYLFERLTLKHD
Assay: Confirmation Assay for Identification of Novel General Anesthetics; note: potency is the fitted concentration of half-maximal effect; nearly all actives have a fitted effect of over 40% in size
Settings: apoferritin 1-aminoanthracene fluorescence displacement
Inconclusive results are not listed. Activity calls are given as the source filed them. Calls come from the whole dose curve; as a rule, active = well fitted inhibition curve with a large enough effect; inconclusive = small, poorly fitted or top-dose-only effect; inactive = flat fitted curve, though single readings scatter.
recorded endpoint: Potency

compound: CC(C)(C)CC(=O)Nc1ccc(Nc2ccccc2)cc1
reported: 17.8 µM (active)
--
compound: Cc1ccccc1Oc1ccccc1N
reported: 15.8 µM (active)
--
compound: Fc1ccccc1CSc1nncn1NC/C=C/c1ccccc1
reported: 31.6 µM (active)
--
compound: Cc1ccccc1OCC(=O)N1CCCCCCC1
reported: 7.94 µM (active)
--
compound: CC(=O)c1cccc(NC(=O)CCC2CCCC2)c1
reported: 28.2 µM (active)
--
compound: NCCOc1ccc(C2CCCCC2)cc1
reported: 7.94 µM (active)
--
compound: Cc1ccc(S(=O)(=O)NCCc2ccccc2)cc1
reported: 15.8 µM (active)
--
compound: COC(=O)c1ccc(/C=N/OCC(=O)NC2CCCCCCC2)cc1
reported: 7.94 µM (active)
--
compound: Cc1ccc(C2=NN(CC(=O)NC(C)c3ccccc3)C(=O)CC2)cc1 (stereo unspecified)
reported: 31.6 µM (active)
--
compound: COc1ccc(NC(C)c2ccccc2)cc1 (stereo unspecified)
reported: 15.8 µM (active)
--
compound: N/C(=N\OC(=O)Cc1ccc(-c2ccccc2)cc1)c1ccncc1
reported: 31.6 µM (active)
--
compound: c1cnc(NC2C3CC4CC(C3)CC2C4)nc1 (stereo unspecified)
reported: 6.31 µM (active)
--
compound: C/C(=N\O)C(C)(C)Nc1ccc(Br)cc1
reported: 8.91 µM (active)
--
compound: Cc1ccccc1NCc1ccccc1O
reported: 15.8 µM (active)
--
compound: Cc1cc(OCC(=O)N(C)C2CCCCC2)cc(C)c1Cl
reported: 35.5 µM (active)
--
compound: Fc1ccccc1CSc1nc2ccccc2[nH]1
reported: 15.8 µM (active)
--
compound: O=[N+]([O-])c1ccc(CNc2ccc(Cl)cc2)s1
reported: 22.4 µM (active)
--
compound: Cc1ccc(CNc2ccc(CNc3ncn[nH]3)cc2)cc1
reported: 20 µM (active)
--
compound: CC1(c2ccc(NC(=O)c3ccccc3F)cc2)CC1(Cl)Cl (stereo unspecified)
reported: 12.6 µM (active)
--
compound: Cc1ccc(C(=O)COC(=O)c2ccc(Br)o2)cc1C
reported: 15.8 µM (active)
--
compound: CC(C)CCOc1ccc(C2N=C(N)Nc3nc4ccccc4n32)cc1 (stereo unspecified)
reported: 12.6 µM (active)
--
compound: CC(C)(Nc1ccccc1)C(=O)c1ccccc1
reported: 12.6 µM (active)
--
compound: Oc1ccc(Cc2ncc(C(F)(F)F)cc2Cl)cc1
reported: 15.8 µM (active)
--
compound: Cc1ccc(NC2CCCN(C(=O)c3cccs3)C2)cc1C (stereo unspecified)
reported: 15.8 µM (active)
--
compound: O=C(CNC(=O)c1ccco1)OCC(=O)c1ccc2c(c1)CCCC2
reported: 31.6 µM (active)
--
compound: O=C(Cc1cccc2ccccc12)N1CCCc2ccccc21
reported: 17.8 µM (active)

###

Reported Potency values follow for various compounds
Target: Ferritin light chain (Equus caballus) (UniProt P02791)
Test: Confirmation Assay for Identification of Novel General Anesthetics; note: potency is the fitted concentration of half-maximal effect; nearly all actives have a fitted effect of over 40% in size
Conditions: apoferritin 1-aminoanthracene fluorescence displacement
Results filed as inconclusive are left out. Active and inactive are the calls of the source. Calls follow the shape of the dose curve; as a rule, active = well fitted inhibition curve with a large enough effect; inconclusive = small, poorly fitted or top-dose-only effect; inactive = flat fitted curve, though single readings scatter.
recorded endpoint: Potency

compound: COC1CCCCC1Nc1cc(C)cc(C)c1 (centres undefined)
reported: 31.6 µM (active)
--
compound: CNc1nc(C23CC4CC(CC(C4)C2)C3)cs1
reported: 15.8 µM (active)
--
compound: CCN(CC)C(=S)SCC(=O)c1ccc(F)cc1
reported: 15.8 µM (active)
--
compound: CC1CCCC(C)N1C(=O)COc1ccccc1F (centres undefined)
reported: 17.8 µM (active)
--
compound: CCCCCc1ccc(C2=NNC(=O)CC2)cc1
reported: 28.2 µM (active)
--
compound: Cc1ccc(F)c(NC(=O)CCc2ccccc2)c1
reported: 15.8 µM (active)
--
compound: Oc1ccc(C2C[C@H]3CC[C@@H]2C3)cc1O (some centres undefined)
reported: 7.08 µM (active)
--
compound: O=C(NCc1ccccc1)Nc1cccn(Cc2ccccc2)c1=O
reported: 8.91 µM (active)
--
compound: Cc1ccc(NC(=O)C2COc3ccccc3O2)cc1C (centres undefined)
reported: 17.8 µM (active)
--
compound: Cc1cccc(S(=O)(=O)NCCc2ccccc2)c1
reported: 14.1 µM (active)
--
compound: O=C(CCC1CCCCC1)Nc1nccs1
reported: 39.8 µM (active)
--
compound: Oc1ccc(NCc2ccc(OCc3ccccc3Cl)cc2)cc1
reported: 17.8 µM (active)
--
compound: O=C(NC1=NCCS1)C12CC3CC(CC(C3)C1)C2
reported: 15.8 µM (active)
--
compound: CC(=O)Nc1ccc(NCc2ccc(C)s2)cc1
reported: 17.8 µM (active)
--
compound: COc1cccc(CNc2ccc(F)c(Cl)c2)c1
reported: 7.94 µM (active)
--
compound: Cc1ccc(S(=O)(=O)NCCC2=CCCCC2)cc1C(N)=O
reported: 7.08 µM (active)
--
compound: Oc1ccc(C(=S)N2CCCCC2)cc1Cl
reported: 17.8 µM (active)
--
compound: O=C(CSCc1ccccc1)Nc1cc([N+](=O)[O-])ccc1F
reported: 31.6 µM (active)
--
compound: O=C(CN1N=C(c2ccccc2)CCC1=O)NCc1cccs1
reported: 17.8 µM (active)
